Target: 5-HT3 (Homo sapiens, UniProt P46098)
Sequence (P46098 24-478): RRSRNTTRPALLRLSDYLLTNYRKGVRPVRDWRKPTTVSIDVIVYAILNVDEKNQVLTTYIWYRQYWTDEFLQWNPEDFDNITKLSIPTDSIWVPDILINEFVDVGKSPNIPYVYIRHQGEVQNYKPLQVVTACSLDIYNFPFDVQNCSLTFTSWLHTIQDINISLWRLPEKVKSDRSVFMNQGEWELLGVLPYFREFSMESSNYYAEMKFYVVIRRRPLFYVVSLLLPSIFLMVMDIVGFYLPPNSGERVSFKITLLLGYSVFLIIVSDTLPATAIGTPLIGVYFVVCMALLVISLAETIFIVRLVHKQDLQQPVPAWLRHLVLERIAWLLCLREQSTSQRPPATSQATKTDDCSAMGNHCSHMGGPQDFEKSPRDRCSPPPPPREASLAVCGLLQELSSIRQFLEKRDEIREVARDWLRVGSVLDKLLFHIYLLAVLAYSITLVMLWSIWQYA
pKi: −log10 of the molar value.
endpoint-label: pKi

molecule="COc1ccc(C2(N3CCCCC3)CCCCC2)cc1 [4-MeO-PCP]" measured="< 5.00"
molecule="COc1cccc(C2(N3CCCCC3)CCCCC2)c1 [3-MeO-PCP]" measured="< 5.00"
molecule="CCNC1(c2cccc(OC)c2)CCCCC1=O (racemic) [Methoxetamine]" measured="< 5.00"
